All figures here come from the EternaBench riboswitch data.

system: MS2 coat protein; test: apparent Kd, MS2 coat protein; higher = weaker binding; RNA-MaP array; FMN 200 µM where present; settings: ligand present: flavin mononucleotide; designed as: OFF switch for flavin mononucleotide

>  <SEQUENCE_TEXT>
GAUCAGAUAGGAUAUACAGGCUCGUCUUUAUAUUGAUCCCGACAUGAGGAUCACCCAUGUAGAAGGAUCAGAUC

>  <apparent Kd, nM>
45.7

$$$$
>  <SEQUENCE_TEXT>
UAUGGGUGUGUGAGGAUAUACGAAGGCAGUGGCCAGUAGAAGGUACAUGAGGAUCACCCAUGUGUCCAAAAGUG

>  <apparent Kd, nM>
18.4

$$$$
>  <SEQUENCE_TEXT>
CCUUGUAUUGAGGAUAUGCGCCGGCUCGCUGGCGCAGAAGGCGGCACAUGAGGAUCACCCAUGUCAGUUCGCGA

>  <apparent Kd, nM>
12

$$$$
>  <SEQUENCE_TEXT>
GGUAAAGGCAGCCUCUACCCUGCACAUGAGGAUCACCCAUGUAAGGAUAUCGCCGCGGUAAUGGUCGAGAAGGUAUAUCGGGUU

>  <apparent Kd, nM>
46.5

$$$$

---

// values below are reported apparent Kd
tested on: MS2 coat protein; test: apparent Kd, MS2 coat protein; higher = weaker binding; RNA-MaP array; conditions: designed as: OFF switch for flavin mononucleotide; no ligand
READOUT_LABEL: apparent Kd

>  <SEQUENCE_TEXT>
AUUAGCAUCCAAGGAUAUCAGUUGGCCCGCAGGUGAGAAGGUGGAUUCUGGGCGCCGCGUGGGACACAUGAGGAUCACCCAUGU

>  <ASSAYED_SYSTEM>
MS2 coat protein

>  <VALUE>
30.3 nM

$$$$
>  <SEQUENCE_TEXT>
CGGGCGAAGCCUUUCACAUGAGGAUCACCCAUGUCUAAUACGAAGGAUAUCCUCGCCGGAGCUAAGGAGAAGGUCGACAUAGUU

>  <ASSAYED_SYSTEM>
MS2 coat protein

>  <VALUE>
18.9 nM

$$$$
>  <SEQUENCE_TEXT>
GCCAGUGUCUAGGAUAUCACGCCGCGUUGCAGGUGAGAAGGAGACACAUGAGGAUCACCCAUGUGUCCGAUAGG

>  <ASSAYED_SYSTEM>
MS2 coat protein

>  <VALUE>
7.12 nM

$$$$
>  <SEQUENCE_TEXT>
UGGAACAGUGUAAGGAUAUGGUACAAAAUAAACUCCCAGAAGGUACAUGAGGAUCACCCAUGUUAAUAAGACAA

>  <ASSAYED_SYSTEM>
MS2 coat protein

>  <VALUE>
13.7 nM

$$$$
>  <SEQUENCE_TEXT>
ACAUGAGGAUCACCCAUGUACCAAGAACAUUGAUGCCUCCGAGAGGAUAUUUGCGGUAUAACACUAAAGAAGGCUCUACAAGUA

>  <ASSAYED_SYSTEM>
MS2 coat protein

>  <VALUE>
7.95 nM

$$$$
>  <SEQUENCE_TEXT>
AAGCUGGAGAAUACAUGAGGAUCACCCAUGUGGCUUCAUGCCUAGGAUAUUAGUGUGCAGAACUGUAAGAAGGAGGAUCUUUAA

>  <ASSAYED_SYSTEM>
MS2 coat protein

>  <VALUE>
10.3 nM

$$$$
>  <SEQUENCE_TEXT>
UCUGCGUCAGUCAGGAUAUGUUGCCAAAUUAUGGCACAGAAGGGACAUGAGGAUCACCCAUGUAGCGUCUCCGU

>  <ASSAYED_SYSTEM>
MS2 coat protein

>  <VALUE>
10.2 nM

$$$$

---

test system: MS2 coat protein; test: apparent Kd, MS2 coat protein; higher = weaker binding; RNA-MaP array; FMN 200 µM where present; conditions: designed as: OFF switch for flavin mononucleotide; no ligand

>  <SEQUENCE_TEXT>
CGAUGGCAUGUAGGAUAUCGAGCUCAAAGAGCUCGAGAAGGACAUGAGGAUCACCCAUGUGCACACAGACAGUGUGCGCUAUCG

>  <ASSAYED_SYSTEM>
MS2 coat protein

>  <QUANTITY_UNIT>
nM

>  <apparent Kd>
37

$$$$
>  <SEQUENCE_TEXT>
AUCGUGAGUAAGGAUAUCACGCGACCCUUUCGGUGAGAAGGUGCCACAUGAGGAUCACCCAUGUGGGUCGUCGC

>  <ASSAYED_SYSTEM>
MS2 coat protein

>  <QUANTITY_UNIT>
nM

>  <apparent Kd>
15.6

$$$$
>  <SEQUENCE_TEXT>
UUCAGCUCGUGAGGAUAUACAUGUGCUGGAAACAGCACUAUUGAGUUCACAUGAGGAUCACCCAUGUAGAAGGCACGAGCUGAG

>  <ASSAYED_SYSTEM>
MS2 coat protein

>  <QUANTITY_UNIT>
nM

>  <apparent Kd>
15.2

$$$$
>  <SEQUENCE_TEXT>
UGAUAGGACAGAGGAUAUACCGAUAGGAGAUACUAUCGACUAUUCCUCACAUGAGGAUCACCCAUGUAGAAGGCUGUCCUAUCU

>  <ASSAYED_SYSTEM>
MS2 coat protein

>  <QUANTITY_UNIT>
nM

>  <apparent Kd>
15.5

$$$$
>  <SEQUENCE_TEXT>
GGAUUACAUGAGGAUCACCCAUGUGAGGAUAUCGAUGUCCUGGGUGGAGUGCGGGACUCGAGAAGGCACUUGGA

>  <ASSAYED_SYSTEM>
MS2 coat protein

>  <QUANTITY_UNIT>
nM

>  <apparent Kd>
60.5

$$$$
>  <SEQUENCE_TEXT>
GUCAGACGAGGAUAUAGAUUUAAGUACAUGAGGAUCACCCAUGUACACAUGUAUUUAGAUUUAGAAGGCGUCUGAC

>  <ASSAYED_SYSTEM>
MS2 coat protein

>  <QUANTITY_UNIT>
nM

>  <apparent Kd>
594

$$$$
>  <SEQUENCE_TEXT>
GUUAGUUAAGGAUAUACAGGGAGCUGCGGCGUCUCGCCGCAACAUGAGGAUCACCCAUGUAGAAGGUAGCCGUU

>  <ASSAYED_SYSTEM>
MS2 coat protein

>  <QUANTITY_UNIT>
nM

>  <apparent Kd>
76.4

$$$$

---

test system: MS2 coat protein; assay: apparent Kd, MS2 coat protein; higher = weaker binding; RNA-MaP array; FMN 200 µM where present; settings: ligand present: flavin mononucleotide; designed as: ON switch for flavin mononucleotide
// values below are reported apparent Kd

>  <SEQUENCE_TEXT>
UUUAUAAAUUAGAAGGCGUGAUAAAAUACAAUAAACAUGAGGAUCACCCAUGUGUACCCAUGUUAUGAGGAUAUAGUCAUAUAU

>  <apparent Kd>
377 nM

$$$$
>  <SEQUENCE_TEXT>
ACAUACAUUCGAGGAUAUCGGUGAACAAAUUAACGAGAAGGCGAUAUAAGUUUUAAUCUUAUGAACAUGAGGAUCACCCAUGUA

>  <apparent Kd>
24.3 nM

$$$$
>  <SEQUENCE_TEXT>
GCGAUUUUGUAGAAGGUACGUGAUUAGUCAAAGUAAGGAUAUACUGACAUGAGGAUCACCCAUGUAUUAAUAGUUAACAGUCGC

>  <apparent Kd>
23.1 nM

$$$$
>  <SEQUENCE_TEXT>
GUAGCAUAAUUAGGAUAUUCAGCGAAUAGAUUGACAUGAGGAUCACCCAUGUGGCGAAAGCCGAGGGAGAAGGGAUAAUGCUAC

>  <apparent Kd>
61.1 nM

$$$$

---

test system: MS2 coat protein; test: apparent Kd, MS2 coat protein; higher = weaker binding; RNA-MaP array; FMN 200 µM where present; settings: designed as: OFF switch for flavin mononucleotide; no ligand
Label Criterion met when apparent Kd is at or above 20 nM; anything below gets Criterion not met.

>  <SEQUENCE_TEXT>
CGACAUACGAUGGACGGAAACGUACAUGAGGAUCACCCAUGUAGAAGGCGAUCCGCAACGCGGAUUGAGGAUAUAUACCACACA

>  <ANSWER_LABEL>
Criterion not met

$$$$
>  <SEQUENCE_TEXT>
GUCCGGCGUGUAGGAUAUGGAUCCGAUUAGGAUCCAGAAGGACAUGAGGAUCACCCAUGUACAUGUAAACAGUCAUCACCGGAG

>  <ANSWER_LABEL>
Criterion not met

$$$$
>  <SEQUENCE_TEXT>
UCUGCCGCCGUGAGGAUAUGCCCAAAGAAAAGCGGGCAGAAGGCACAUGAGGAUCACCCAUGUCCCGCGGUUUU

>  <ANSWER_LABEL>
Criterion not met

$$$$
>  <SEQUENCE_TEXT>
AUACAUGAGGAUCACCCAUGUGGAUCACCCAUGUAAGAUGGUAGAAGGAUGUUAUUAUUAUUUUCAUAGGAUAUACUAUUUAGU

>  <ANSWER_LABEL>
Criterion met

$$$$
>  <SEQUENCE_TEXT>
UUUUUGUGAGGAUAUUAGUAGUAAAAAAAUAAAAUUACUACUGAGAAGGCACAUGAGGAUCACCCAUGUUCCUC

>  <ANSWER_LABEL>
Criterion met

$$$$
>  <SEQUENCE_TEXT>
GGAUUACAUGAGGAUCACCCAUGUGAGGAUAUCGAUGUCCUGUGUGGAGUGCGGGACUCGAGAAGGCACUUGGA

>  <ANSWER_LABEL>
Criterion met

$$$$
>  <SEQUENCE_TEXT>
GGUAAAGGCAGCCUCUACCCUGCACAUGAGGAUCACCCAUGUAAGGAUAUCGCCGCGGUAAUGGUCGAGAAGGUAUAUCGGGUU

>  <ANSWER_LABEL>
Criterion not met

$$$$
